Where do the numbers come from? From PubChem BioAssay (EPA / NIEHS).

# assay protocol: BSK_3C_uPAR: BioMAP Diversity Plus: 3C Assay for Urokinase-type plasminogen activator receptor (uPAR) Biomarker Activity (AID 2282998)
# test parameters: BioMAP 3C HUVEC, uPAR biomarker ELISA; actives raise or lower the signal
Calls of active or inactive are those of the source. How the source made its calls: active means hit-call score of the fitted dose curve at least 0.9, where 1 is the maximum; inactive means score below 0.9.
Outcome codes: active, inactive

1) CN(C)c1ccc(C(=C2C=CC(=[N+](C)C)C=C2)c2ccc(N(C)C)cc2)cc1 ... active
2) Cc1ccc(C(C)C)cc1 ... inactive
3) COc1cccc([C@H](O)C2CCN(CCc3ccc(F)cc3)CC2)c1OC ... inactive
4) O=c1[nH]sc2ccccc12 ... active
5) COc1cc(C(=O)NC2CCN(C)CC2)ccc1Nc1ncc2c(n1)N(C1CCCC1)CC(F)(F)C(=O)N2C ... active
6) NC(=O)c1nc(-c2cccc(-c3cc(F)ccc3OCC(F)(F)C(F)(F)F)c2)n[nH]1 ... active
7) CCCCCCCCN(C)CCCCCCCC ... inactive
8) Cc1ncc(CO)c(CO)c1O ... inactive
9) CC[C@@H]1C[C@H](N(Cc2cc(C(F)(F)F)cc(C(F)(F)F)c2)C(C)=O)c2cc(C(F)(F)F)ccc2N1C(=O)OC(C)C ... inactive
10) CCN(Cc1cccc(S(=O)(=O)O)c1)c1ccc(C(=C2C=CC(=[N+](CC)Cc3cccc(S(=O)(=O)O)c3)C=C2)c2ccccc2S(=O)(=O)[O-])cc1 ... inactive

---

# assay protocol: CCTE_Shafer_MEA_acute_per_network_burst_spike_number_mean: CCTE's Neural Acute Assay for Average Number of Spikes in a Network Burst, Shafer Lab (AID 2284019)
Calls of active or inactive are those of the source. The calls were made as follows: active = hit-call score of the fitted dose curve at least 0.9, where 1 is the maximum; inactive = score below 0.9.
Outcome codes: yes for active, no for inactive

1. CN(C)c1ccc(C(=C2C=CC(=[N+](C)C)C=C2)c2ccc(N(C)C)cc2)cc1 ... no
2. O=C(O)c1ccccc1-n1cc(C(=O)O)c(=O)c2cc(Nc3c(F)cc(F)cc3Cl)c(Cl)cc21 ... no
3. CC(O)CC(C)(C)O (stereo not given) ... no
4. CN(C[C@@H](CC[N+]12CCC(C3CCCCC3)(CC1)CC2)c1ccc(Cl)c(Cl)c1)C(=O)c1cc(C(F)(F)F)cc(C(F)(F)F)c1 ... no
5. O=C1O[C@H]([C@@H](O)CO)C(O)=C1O ... no
6. CC(=O)N1CCN(c2ccc(OC[C@H]3CO[C@](Cn4ccnc4)(c4ccc(Cl)cc4Cl)O3)cc2)CC1 ... no
7. CCCCCCCCOC(=O)c1cc(O)c(O)c(O)c1 ... no
8. Clc1ccccc1C(c1ccccc1)(c1ccccc1)n1ccnc1 ... no
9. CC[C@@H]1C[C@H](N(Cc2cc(C(F)(F)F)cc(C(F)(F)F)c2)C(C)=O)c2cc(C(F)(F)F)ccc2N1C(=O)OC(C)C ... no
10. NCc1cccc(C2CCN(C(=O)c3ccc(C#Cc4ccccc4F)o3)CC2)c1 ... no
11. CCCCOC(=O)c1ccc(O)cc1 ... no
12. CN(C)C(=O)C1(N2CCCCC2)CCN(CC[C@@]2(c3ccc(Cl)c(Cl)c3)CN(C(=O)c3ccccc3)CCO2)CC1 ... yes
13. COc1cc(C(=O)NC2CCN(C)CC2)ccc1Nc1ncc2c(n1)N(C1CCCC1)CC(F)(F)C(=O)N2C ... yes
14. CO[C@H]1/C=C/O[C@@]2(C)Oc3c(C)c(O)c4c(O)c(c(/C=N/N5CCN(C)CC5)c(O)c4c3C2=O)NC(=O)/C(C)=C\C=C\[C@H](C)[C@H](O)[C@@H](C)[C@@H](O)[C@@H](C)[C@H](OC(C)=O)[C@@H]1C ... yes
15. CC(C)(c1cc(Br)c(O)c(Br)c1)c1cc(Br)c(O)c(Br)c1 ... no
16. CCN(CC)C(=O)c1cc(S(=O)(=O)Cc2ccccc2)c(N2CCC(c3ccccc3)CC2)cc1N(CC)CCN(C)C ... yes
17. Cc1c2ccccc2c(C)c2c1ccc1ccccc12 ... no
18. CC/C(=C(/CC)c1ccc(O)cc1)c1ccc(O)cc1 ... yes
19. CN1C(=O)CC[C@H]1c1cccnc1 ... no
20. CC1=CC(=O)/C(=C(/C)O)C(=O)O1 ... no

---

# Read-out: CYP2E1 (gene 1571)
# assay protocol: LTEA_HepaRG_CYP2E1: Life Technologies and Expression Analysis (LTEA) Assay for CYP2E1 using HepaRG (AID 2283485)
# test parameters: mRNA level, 48 h; actives raise or lower the signal
Activity calls are given as the source filed them. How the source made its calls: active means hit-call score of the fitted dose curve at least 0.9, where 1 is the maximum; inactive means score below 0.9.
Outcome codes: y (active), n (inactive)

1) CCN(Cc1cccc(S(=O)(=O)O)c1)c1ccc(C(=C2C=CC(=[N+](CC)Cc3cccc(S(=O)(=O)O)c3)C=C2)c2ccccc2S(=O)(=O)[O-])cc1 ... n
2) O=C(O)c1ccccc1C(=O)OCc1ccccc1 ... n
3) CCCCCCCCN(C)CCCCCCCC ... n
4) c1ccc(C[n+]2cccc3ccccc32)cc1 ... y

---

# Read-out: adenosine kinase (ADK) gene, ADK (gene 132)
# assay protocol: LTEA_HepaRG_ADK: Life Technologies and Expression Analysis (LTEA) Assay for adenosine kinase (ADK) gene using HepaRG (AID 2283471)
# test parameters: mRNA level, 48 h; actives raise or lower the signal
Activity calls are given as the source filed them. The calls were made as follows: active = hit-call score of the fitted dose curve at least 0.9, where 1 is the maximum; inactive = score below 0.9.
Outcome codes: active, inactive

1) O=C(O)c1ccccc1-n1cc(C(=O)O)c(=O)c2cc(Nc3c(F)cc(F)cc3Cl)c(Cl)cc21 ... inactive
2) O=c1ccc2ccccc2o1 ... inactive
3) Clc1cc(Cl)c2c(c1)N=C1CCCCCN1C2 ... inactive
4) O=c1c(-c2ccc(O)cc2)coc2cc(O)cc(O)c12 ... inactive
5) CC(O)CC(C)(C)O (configuration not stated) ... inactive
6) Cc1cccc2ccccc12 ... inactive
7) CN(C)c1ccc(C(=C2C=CC(=[N+](C)C)C=C2)c2ccc(N(C)C)cc2)cc1 ... active

---

# Read-out: ABC Transporter (ABCB11), ABCB11 (gene 8647)
# assay protocol: LTEA_HepaRG_ABCB11: Life Technologies and Expression Analysis (LTEA) Assay for ABC Transporter (ABCB11) using HepaRG (AID 2283463)
# test parameters: mRNA level, 48 h; actives raise or lower the signal
Active and inactive are the calls of the source. Rule for the calls: active = hit-call score of the fitted dose curve at least 0.9, where 1 is the maximum; inactive = score below 0.9.
Outcome codes: active, inactive

1. O=C(O)c1ccccc1-n1cc(C(=O)O)c(=O)c2cc(Nc3c(F)cc(F)cc3Cl)c(Cl)cc21 ... inactive
2. CCCOC(=O)c1cc(O)c(O)c(O)c1 ... inactive
3. CCCCOC(=O)c1ccc(O)cc1 ... inactive
4. CN(C[C@@H](CC[N+]12CCC(C3CCCCC3)(CC1)CC2)c1ccc(Cl)c(Cl)c1)C(=O)c1cc(C(F)(F)F)cc(C(F)(F)F)c1 ... active
5. Cc1c2ccccc2c(C)c2c1ccc1ccccc12 ... active
6. CC(C)(C)c1cc(/C=C2\SC(N)=NC2=O)cc(C(C)(C)C)c1O ... active
7. Oc1ccccc1 ... inactive
8. O=C(O)Cc1cc(I)c(Oc2ccc(O)c(I)c2)c(I)c1 ... active
9. CCOC(=O)O[C@H](C)OC(=O)c1ccc2c(c1)cc(C(=O)NC1CCN(C(C)C)CC1)n2Cc1cc(-c2ccc(Cl)s2)on1 ... inactive
10. CC1(C)NC(=O)N(c2ccc([N+](=O)[O-])c(C(F)(F)F)c2)C1=O ... active

---

# Read-out: MicroRNA 122 (MIR122), gene 406906
# assay protocol: LTEA_HepaRG_MIR122: Life Technologies and Expression Analysis (LTEA) Assay for MicroRNA 122 (MIR122) using HepaRG (AID 2283516); further: the transcript read is the microRNA miR-122
# test parameters: mRNA level, 48 h; actives raise or lower the signal
Calls of active or inactive are those of the source. How the source made its calls: active means hit-call score of the fitted dose curve at least 0.9, where 1 is the maximum; inactive means score below 0.9.
Outcome codes: active, inactive

1) COc1cc(C(=O)NC2CCN(C)CC2)ccc1Nc1ncc2c(n1)N(C1CCCC1)CC(F)(F)C(=O)N2C ... inactive
2) O=CCCCC=O ... inactive
3) Cc1oc2c(NC(=O)c3c(Cl)cccc3Cl)cccc2c1C(C)(C)O ... active
4) CN(C)C(=O)C1(N2CCCCC2)CCN(CC[C@@]2(c3ccc(Cl)c(Cl)c3)CN(C(=O)c3ccccc3)CCO2)CC1 ... active
5) O=C(OCCCCCCOC(=O)c1ccccc1)c1ccccc1 ... inactive
6) CN1C(=O)CC[C@H]1c1cccnc1 ... inactive
7) c1ccc2n[nH]nc2c1 ... inactive
8) Cc1cc(F)ccc1-c1cc(N2CC[C@@H](O)[C@H]2CO)ncc1N(C)C(=O)C(C)(C)c1cc(C(F)(F)F)cc(C(F)(F)F)c1 ... active
9) O=C(O)c1ccccc1-n1cc(C(=O)O)c(=O)c2cc(Nc3c(F)cc(F)cc3Cl)c(Cl)cc21 ... inactive
10) Clc1ccccc1C(c1ccccc1)(c1ccccc1)n1ccnc1 ... active
11) CC1(C)NC(=O)N(c2ccc([N+](=O)[O-])c(C(F)(F)F)c2)C1=O ... active
12) O=C1CCC(C2CCCCC2)CC1 ... inactive
13) C[C@]12CC[C@@H]3c4ccc(O)cc4CC[C@H]3[C@@H]1CC[C@H]2O ... inactive
14) CCCCCCCC[Si](OCC)(OCC)OCC ... inactive
15) Cc1cn([C@H]2C[C@H](N=[N+]=[N-])[C@@H](CO)O2)c(=O)[nH]c1=O ... inactive
16) COc1ccc2cc(S(=O)(=O)N[C@H](CC(=O)N[C@H](Cc3ccc(CN4[C@H](C)CCC[C@@H]4C)cc3)C(=O)N(C)C(C)C)c3ccc4c(c3)OCO4)ccc2c1 ... active
17) CCCCCCCCCCCC[N+](C)(C)C ... active
